Assay: qHTS assay to identify small molecule antagonists of the thyroid receptor (TR) signaling pathway (AID 743065); note: nearly all actives have a fitted effect of over 55% in size
Conditions: GH3.TRE-Luc, T3-stimulated luciferase inhibition, 23.5 h; series mostly up to 70.3 µM
Inconclusive results are not listed. Activity calls are given as the source filed them. Calls come from the whole dose curve; as a rule, active = well fitted inhibition curve with a large enough effect in the repeat runs; inconclusive = weak or mixed curves; inactive = no such curve, though single readings can be large or run the other way.
Outcomes: TRUE = active, FALSE = inactive

INSERT INTO assay_data (compound, cat) VALUES
  ('O=S(=O)(O)c1ccc2nc(-c3ccccc3)[nH]c2c1', 'FALSE'),
  ('Nc1nc2ccccc2[nH]1', 'FALSE'),
  ('CCCCOCCOC(=O)c1ccccc1C(=O)OCCOCCCC', 'TRUE'),
  ('Nc1nc(=S)c2[nH]cnc2[nH]1', 'FALSE'),
  ('CCCCCCCCCCCCc1ccccc1O', 'TRUE'),
  ('Nc1ccc2cc3ccccc3cc2c1', 'FALSE'),
  ('CC(=O)N[C@@H](CS)C(=O)O', 'FALSE'),
  ('NNCCc1ccccc1', 'TRUE'),
  ('O=Cc1ccc(Cl)cc1', 'FALSE'),
  ('Cc1cc(C(C)(C)C)c(O)c(C(C)(C)C)c1', 'FALSE'),
  ('CCCCCCCCCCCCCCCCCl', 'FALSE'),
  ('CCC(C)(Oc1ccc(C2(c3ccc(OC(C)(CC)C(=O)O)cc3)CCCCC2)cc1)C(=O)O (stereo not given)', 'FALSE'),
  ('COC(=O)/C=C/c1ccccc1', 'FALSE'),
  ('CC1COC(=O)O1 (stereo not given)', 'FALSE'),
  ('c1ccc2cc3c(ccc4ccccc43)cc2c1', 'FALSE');

###

Biological target: Glucocorticoid receptor (Homo sapiens) (UniProt P04150)
Sequence (P04150 whole entry, looked up): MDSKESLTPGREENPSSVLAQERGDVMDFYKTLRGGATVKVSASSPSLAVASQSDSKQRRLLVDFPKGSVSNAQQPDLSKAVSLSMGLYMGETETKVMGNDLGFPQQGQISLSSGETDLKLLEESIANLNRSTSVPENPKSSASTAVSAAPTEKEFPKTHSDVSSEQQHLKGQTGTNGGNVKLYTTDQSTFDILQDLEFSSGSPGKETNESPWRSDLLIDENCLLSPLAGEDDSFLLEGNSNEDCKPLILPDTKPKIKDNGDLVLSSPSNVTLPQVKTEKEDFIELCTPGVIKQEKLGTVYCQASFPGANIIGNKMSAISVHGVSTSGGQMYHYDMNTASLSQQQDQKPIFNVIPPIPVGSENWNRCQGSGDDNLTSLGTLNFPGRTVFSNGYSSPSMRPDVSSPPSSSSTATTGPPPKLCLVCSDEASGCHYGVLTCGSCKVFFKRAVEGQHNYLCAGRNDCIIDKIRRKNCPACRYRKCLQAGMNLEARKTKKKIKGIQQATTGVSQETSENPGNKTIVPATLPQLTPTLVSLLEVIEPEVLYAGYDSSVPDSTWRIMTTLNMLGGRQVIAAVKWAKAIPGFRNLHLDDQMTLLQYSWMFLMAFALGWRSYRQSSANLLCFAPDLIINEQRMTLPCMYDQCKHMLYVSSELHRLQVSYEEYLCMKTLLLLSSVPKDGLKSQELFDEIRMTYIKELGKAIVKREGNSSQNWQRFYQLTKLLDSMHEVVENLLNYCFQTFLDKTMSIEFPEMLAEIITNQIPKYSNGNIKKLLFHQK
Assay: qHTS assay to identify small molecule agonists of the glucocorticoid receptor (GR) signaling pathway (AID 720691)
Settings: GR-bla HeLa, beta-lactamase reporter ratio, 18 h; series mostly up to 62.4 µM
Results filed as inconclusive are left out. Active and inactive are the calls of the source. Calls come from the whole dose curve; as a rule, active = well fitted activation curve with a large enough effect in the signal ratio in the repeat runs (not every such curve was filed as active); inconclusive = weak or mixed curves, or effect the other way; inactive = no such curve, though single readings can be large or run the other way; the % refers to the signal ratio.
Measurement Kind: outcome

INSERT INTO measurements (compound, val) VALUES
  ('CN(C)c1ccc(C(=C2C=CC(=[N+](C)C)C=C2)c2ccccc2)cc1', 'inactive'),
  ('C/C=C/c1ccc(OCC)c(O)c1', 'inactive'),
  ('COc1cc(C(=S)N2CCOCC2)ccc1O', 'inactive'),
  ('CCCCCCC(O)CCCCCCCCCCC(=O)O (stereo unspecified)', 'inactive'),
  ('CNCCC(Oc1ccc(C(F)(F)F)cc1)c1ccccc1 (stereo unspecified)', 'inactive'),
  ('COC(=O)[C@H]1[C@H]2C[C@@H]3c4[nH]c5cc(OC)ccc5c4CCN3C[C@H]2C[C@@H](OC(=O)c2cc(OC)c(OC)c(OC)c2)[C@@H]1OC', 'inactive'),
  ('CC1=C(C=O)C(C)(C)CC=C1', 'inactive'),
  ('CCC(CO)(CO)COCC(CC)(CO)CO', 'inactive'),
  ('CC(C)CCCCCCc1ccc(O)cc1', 'inactive'),
  ('c1cc(C(c2ccc(OCC3CO3)cc2)C(c2ccc(OCC3CO3)cc2)c2ccc(OCC3CO3)cc2)ccc1OCC1CO1 (stereo unspecified)', 'inactive'),
  ('CC(COc1ccccc1)N(CCCl)Cc1ccccc1 (stereo unspecified)', 'inactive');

###

Molecular target: Nuclear receptor subfamily 1 group I member 3 (Homo sapiens) (UniProt Q14994)
Sequence (Q14994 whole entry, looked up): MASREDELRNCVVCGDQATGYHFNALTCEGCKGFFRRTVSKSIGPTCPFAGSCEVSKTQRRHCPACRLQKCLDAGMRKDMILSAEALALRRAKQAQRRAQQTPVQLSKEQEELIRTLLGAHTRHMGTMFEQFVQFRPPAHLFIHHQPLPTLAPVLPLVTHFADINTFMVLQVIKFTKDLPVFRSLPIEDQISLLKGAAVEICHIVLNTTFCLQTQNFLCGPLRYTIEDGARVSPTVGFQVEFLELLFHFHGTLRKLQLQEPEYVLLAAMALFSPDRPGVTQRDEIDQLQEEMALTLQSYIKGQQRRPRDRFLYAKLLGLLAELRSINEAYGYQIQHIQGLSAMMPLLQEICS
Assay: qHTS assay to identify small molecule agonists of the constitutive androstane receptor (CAR) signaling pathway (AID 1224839); note: nearly all actives have a fitted effect of over 15% in size;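 for activation: HepG2 cells stably carrying human CAR and a CYP2B6 luciferase reporter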
Conditions: HepG2 hCAR CYP2B6-luciferase, agonist mode, 24 h; series mostly up to 92.4 µM
Results filed as inconclusive are left out. The source made the active and inactive calls. Calls follow the shape of the dose curve; as a rule, active = well fitted activation curve with a large enough effect in the repeat runs; inconclusive = weak or mixed curves; inactive = no such curve, though single readings can be large or run the other way.
Classes used: True (active), False (inactive)

INSERT INTO results (compound, cat) VALUES
  ('O=Cc1ccc(Cl)cc1', 'False'),
  ('O=C(O)CP(=O)(O)O', 'False'),
  ('Cc1ccc(S(=O)(=O)Oc2ccc(N=Nc3ccc(-c4ccc(N=Nc5c(O)ccc6cc(S(=O)(=O)O)cc(S(=O)(=O)O)c56)c(C)c4)cc3C)cc2)cc1', 'False'),
  ('BrC1CCC(Br)C(Br)CCC(Br)C(Br)CCC1Br (stereo not drawn)', 'False'),
  ('CC(C)(C)NCC(O)COc1ccccc1OCC1CCCO1 (stereo not drawn)', 'False'),
  ('O=C(OCc1ccccc1)c1ccc(O)cc1', 'False'),
  ('CC1=C(C=O)C(C)(C)CC=C1', 'False'),
  ('Cc1cccc2n[nH]nc12', 'False'),
  ('C=CC(=O)OCCCCCCCC', 'False'),
  ('CCCCCCCCCCCC[N+](C)(C)C', 'False'),
  ('CN(C)c1ccc(C(=C2C=CC(=[N+](C)C)C=C2)c2ccccc2)cc1', 'False'),
  ('C/C=C/c1ccc(OCC)c(O)c1', 'False'),
  ('O=C(O)CCc1ccccc1', 'False'),
  ('CC(=O)N[C@@H](CS)C(=O)O', 'False'),
  ('c1cnc2cc3c(cc2n1)C1CNCC3C1', 'False'),
  ('CNC1(C)C2CCC(C2)C1(C)C (stereo not drawn)', 'False'),
  ('COc1ccc(COC(C)=O)cc1', 'False'),
  ('COc1cc(C(=S)N2CCOCC2)ccc1O', 'False'),
  ('CC(C)CCOC(=O)c1ccc(N(C)C)cc1', 'True'),
  ('CCCCCCC(O)CCCCCCCCCCC(=O)O (stereo not drawn)', 'False'),
  ('O=C(Nc1ccccc1SSc1ccccc1NC(=O)c1ccccc1)c1ccccc1', 'False'),
  ('COC(=O)c1cccc(C(=O)OC)c1', 'False'),
  ('CCCNC(C)C(=O)Nc1ccccc1C (stereo not drawn)', 'False'),
  ('Oc1c(Cl)cc(Cl)cc1Sc1cc(Cl)cc(Cl)c1O', 'False'),
  ('CC(=O)OCCOCCOCCOC(C)=O', 'False'),
  ('Cc1scc2c1N(C(=O)CN1CCN(C)CC1)c1ccccc1NC2=O', 'False'),
  ('CCCC(=O)c1ccccc1', 'False'),
  ('CCCCC(CC)COC(=O)CC(C(=O)OCC(CC)CCCC)S(=O)(=O)O (stereo not drawn)', 'False');
